Molecular target: purified porcine kidney aminopeptidase N (Sus scrofa, UniProt P15145)
Sequence (P15145 1-963): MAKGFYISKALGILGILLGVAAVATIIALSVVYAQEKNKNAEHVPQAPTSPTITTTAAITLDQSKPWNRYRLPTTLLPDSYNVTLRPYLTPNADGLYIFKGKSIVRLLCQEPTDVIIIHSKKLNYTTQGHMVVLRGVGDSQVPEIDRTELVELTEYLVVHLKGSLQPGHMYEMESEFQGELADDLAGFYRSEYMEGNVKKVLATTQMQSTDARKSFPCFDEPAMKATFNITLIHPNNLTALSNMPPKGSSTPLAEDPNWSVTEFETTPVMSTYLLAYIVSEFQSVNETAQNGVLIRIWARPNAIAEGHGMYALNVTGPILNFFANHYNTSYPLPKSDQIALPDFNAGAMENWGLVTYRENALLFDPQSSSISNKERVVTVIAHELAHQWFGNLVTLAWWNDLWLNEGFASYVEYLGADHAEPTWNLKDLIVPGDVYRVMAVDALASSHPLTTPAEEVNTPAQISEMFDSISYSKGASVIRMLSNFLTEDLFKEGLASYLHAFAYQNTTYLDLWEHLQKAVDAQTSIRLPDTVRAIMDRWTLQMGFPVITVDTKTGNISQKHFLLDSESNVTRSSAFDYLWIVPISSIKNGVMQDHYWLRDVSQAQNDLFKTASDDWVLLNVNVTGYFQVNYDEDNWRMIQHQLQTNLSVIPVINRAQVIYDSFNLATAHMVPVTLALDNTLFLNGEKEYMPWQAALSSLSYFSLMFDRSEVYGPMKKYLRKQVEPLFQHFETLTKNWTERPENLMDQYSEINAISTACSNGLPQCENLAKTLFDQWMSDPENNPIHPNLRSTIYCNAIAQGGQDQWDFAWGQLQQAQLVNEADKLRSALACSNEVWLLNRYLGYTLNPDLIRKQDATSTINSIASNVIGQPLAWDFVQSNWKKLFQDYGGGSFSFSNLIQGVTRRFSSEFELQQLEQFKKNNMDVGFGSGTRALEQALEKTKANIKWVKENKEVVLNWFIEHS
metricName: IC50
# answer = value followed by unit

Consider the reported IC50 for these molecules:
| molecule | targetOfAssay | IC50 |
| --- | --- | --- |
| CSCCC(N)CSSCC(Cc1ccccc1)C(=O)NCC(=O)OCc1ccccc1 (centres unmarked) | purified porcine kidney aminopeptidase N (Sus scrofa, UniProt P15145) | 2 nM |
| C[S+]([O-])CCC(N)CSSCC(Cc1ccccc1)C(=O)NC1CCCCC1C(=O)OCc1ccccc1 (centres unmarked) | purified porcine kidney aminopeptidase N (Sus scrofa, UniProt P15145) | 2 nM |
| C[S+]([O-])CCC(N)CSSCC(Cc1ccccc1)C(=O)NCC(=O)OCc1ccccc1 (centres unmarked) | purified porcine kidney aminopeptidase N (Sus scrofa, UniProt P15145) | 2 nM |

Q: Fill blank: measured IC50 of the molecule C[S+]([O-])CCC(N)CSSCC(CC[S+](C)[O-])C(=O)NC(CC(=O)OCc1ccccc1)c1ccccc1 (centres unmarked) is ____.
Ans: 2 nM

Q: Please answer likewise for CC(C)CC(N)CSSCC(Cc1ccccc1)C(=O)NCC(=O)OCc1ccccc1 (centres unmarked)
Ans: 5 nM
